B1: Zinc finger MYM-type protein 2, residues 463 to 506; numbered along this chain, Q9UBW7 (parent)
chain: IMNCCEQCGEYLPSKGAGNNVLVIDGQQKRFCCQSCVSEYKQVG

variants of: B1; assay: abundance fitness (aPCA) (normalised: wild type 0, dead -1); higher = more abundant; growth selection in yeast, the domain comes from the species named; conditions: Homo sapiens
recorded-endpoint: abundance fitness
Keep it simple and answer with nothing but the number.

{"columns": ["change", "recorded-endpoint", "quantitative-readout"],
 "data": [
  ["C36V", "abundance fitness", -0.463],
  ["N19S", "abundance fitness", 0.001],
  ["C8V", "abundance fitness", -0.712],
  ["L12S", "abundance fitness", -0.501],
  ["G18S", "abundance fitness", -0.347]
]}

So for `G18E` , the logged abundance fitness turned out to be 0.302
